- Tested on: MAVER1
- PROCEDURE DETAILS: cells
- ASSAY SETUP: Homo sapiens, Maver1, 6 h, read-out: AZD5991 6h EC50
MEASUREMENT LABEL: pEC50
Numbers only, as −log10 of the molar value.

Find the recorded pEC50 belonging to Cc1c2c(nn1C)CSCc1cc(n(C)n1)CSc1cc(c3ccccc3c1)OCCCc1c(C(=O)O)n(C)c3c-2c(Cl)ccc13 (atropisomer, axis not shown; (Ra)) [(Ra)-7] and report it. 4.56

###

- Tested on: H647
- PROCEDURE DETAILS: cells
- ASSAY SETUP: Homo sapiens, NCI-H647, 6 h, read-out: AZD5991 6h EC50
MEASUREMENT LABEL: EC50

Find the recorded EC50 belonging to Cc1c2c(nn1C)CSCc1cc(n(C)n1)CSc1cc(c3ccccc3c1)OCCCc1c(C(=O)O)n(C)c3c-2c(Cl)ccc13 (atropisomer, axis not shown; (Ra)) [(Ra)-7] and report it. > 30 µM
